Each recorded value in this set is attributed to BindingDB's records for doi:10.1016/j.bmcl.2005.06.069.

- tested-on: Echovirus 9
- test-method-notes: Inhibitory activity against Echovirus 9 using plaque reduction assay
pIC50: −log10 of the molar value.

- smiles-text: "C[C@H](CCOc1ccc(-c2ccc(Cl)cc2)cc1)CCN1CCN(c2ccncc2)C1=O"
  pIC50: "< 4.60"
